Exercise: state measured Blackgrass plant response rating for each of the compounds provided.
# System: blackgrass
# METHOD DESCRIPTION: Test B pre/postemergence blackgrass
# Format: in vivo, Alopecurus myosuroides
# SETUP CONDITIONS: Preemergence, Rate 62 g/ha; scale of 0 to 10 where 0 is no effect and 10 is complete control
# Description: […] At the same time, these crop and weed species were also treated with postemergence applications of test chemicals formulated in the same manner. […] Treated plants and controls were maintained in a greenhouse for twelve to sixteen days, after which all species were compared to controls and visually evaluated. […]

// recorded Blackgrass plant response rating for "COC(=O)Cn1c(=O)on(C(=O)N(c2ccc(F)cc2)C(C)C)c1=O" : 4

The recorded Blackgrass plant response rating for entry "COCn1c(=O)on(C(=O)N(c2ccc(F)cc2)C(C)C)c1=O" equals 7

// "CCc1ccc(N(C(=O)n2oc(=O)n(-c3ccccc3C)c2=O)C(C)C)cc1" : Blackgrass plant response rating value = 0

The compound listed as CCOC(=O)C(C)N(C(=O)n1oc(=O)n(CC)c1=O)c1ccc(F)cc1 (stereo not shown) has a reported Blackgrass plant response rating of 0

Quick note, Blackgrass plant response rating for "CC(C)N(C(=O)n1oc(=O)n(N(C)C)c1=O)c1ccc(F)cc1" landed at 10

The recorded Blackgrass plant response rating for "CC(C)N(C(=O)n1oc(=O)n(CC(=O)C2CC2)c1=O)c1ccc(Cl)cc1" is 0

Sure, the documented Blackgrass plant response rating for "CC(C)N(C(=O)n1oc(=O)n(CCF)c1=O)c1ccc(F)cc1F" is 8

get_value(item= "Cc1ccccc1N(C(=O)n1oc(=O)n(-c2ccccc2C)c1=O)C(C)C" , readout=Blackgrass plant response rating) returns 0

According to the records, this compound "C=C(Cn1c(=O)on(C(=O)N(c2ccc(F)cc2)C(C)C)c1=O)C(=O)OC" displays Blackgrass plant response rating of 0

Summary for this compound, CC(C)N(C(=O)n1oc(=O)n(C(C)C2=NOCC2)c1=O)c1ccc(F)cc1 (racemic) : Blackgrass plant response rating is 9

Form: compound = "CC(C)N(C(=O)n1oc(=O)n([C@@H](C)c2ccccc2)c1=O)c1ccc(F)cc1" ; Blackgrass plant response rating = 0

Memo: "CC(C)N(C(=O)n1oc(=O)n(Cc2ccco2)c1=O)c1ccc(Cl)cc1" , reported Blackgrass plant response rating: 0

Entry "COC(=O)CCCn1c(=O)on(C(=O)N(c2ccc(F)cc2)C(C)C)c1=O" ; Blackgrass plant response rating = 8

Recorded result, "CCN(C(=O)n1oc(=O)n(Cc2ccco2)c1=O)C1CCCCC1" , Blackgrass plant response rating: 0

Just so you know, measured Blackgrass plant response rating for "CC(C)N(Cc1ccccc1)C(=O)n1oc(=O)n(C(C)C)c1=O" came out at 0

Measured Blackgrass plant response rating of "CSCCn1c(=O)on(C(=O)N(c2ccc(F)cc2)C(C)C)c1=O" : 5

Memo: "CC(C)=CCCC(C)=CCn1c(=O)on(C(=O)N(c2ccc(F)cc2)C(C)C)c1=O" , reported Blackgrass plant response rating: 0

Noted for "CC(C)N(C(=O)n1oc(=O)n(-c2ccc(OC(F)(F)F)cc2)c1=O)c1ccc(F)cc1" : its Blackgrass plant response rating reads 0

The compound listed as "CC(C)N(C(=O)n1oc(=O)n(C(C)C)c1=O)c1ccc(Br)cc1" has a reported Blackgrass plant response rating of 4

----------
# System: surinam grass
# METHOD DESCRIPTION: Test B pre/postemergence surinam grass
# Type: in vivo, Brachiaria decumbens
# SETUP CONDITIONS: Preemergence, Rate 250 g/ha; scale 0 to 10, 0 is no effect, 10 is complete control
REPORTED PROPERTY: B. signalgrass plant response rating
// print number alone

Entry "CC(C)N(C(=O)n1oc(=O)n(CCS(C)(=O)=O)c1=O)c1ccc(F)cc1" ; assay system surinam grass; B. signalgrass plant response rating recorded at 6

Test item "CCN(CC)C(=O)n1oc(=O)n(Cc2ccccc2)c1=O" ; surinam grass; reported B. signalgrass plant response rating was 4

Log: surinam grass, molecule "CC(C)N(C(=O)n1oc(=O)n(CC(=O)C(C)(C)C)c1=O)c1ccc(F)cc1" , B. signalgrass plant response rating = 4

Entry C=CC(CC)n1c(=O)on(C(=O)N(c2ccccc2)C(C)C)c1=O (centres unmarked) ; assay system surinam grass; B. signalgrass plant response rating recorded at 9

Tested system surinam grass; B. signalgrass plant response rating recorded for "CC(C)N(C(=O)n1oc(=O)n([C@@H](C)c2ccccc2)c1=O)c1ccc(Cl)cc1" was 0

----------
Please provide measured Soybean plant response rating for the entries that follow.
# System: soybean
# METHOD DESCRIPTION: Test B pre/postemergence soybean
# Format: in vivo, Glycine max
# SETUP CONDITIONS: Rate 125 g/ha, Postemergence; scale 0 to 10

So, CC(C)N(C(=O)n1oc(=O)n(-c2cccnc2)c1=O)c1ccc(F)cc1 [Compound 234] ? Its Soybean plant response rating was 0

Consider Cc1ccccc1-n1c(=O)on(C(=O)N(c2ccc(F)cc2)C2CCC2)c1=O [Compound 200] . Its measured Soybean plant response rating is 2

Soybean plant response rating recorded for this molecule, CCc1ccc(N(C(=O)n2oc(=O)n(-c3ccccc3C)c2=O)C(C)C)cc1 [Compound 230] , is 0

response.value for COC(=O)Cn1c(=O)on(C(=O)N(c2ccc(F)cc2)C(C)C)c1=O [Compound 215] (field: Soybean plant response rating) = 1

Entry CCCCc1ccc(N(C(=O)n2oc(=O)n(-c3ccccc3C)c2=O)C(C)C)cc1 [Compound 229] ; Soybean plant response rating = 0

get_value(item= CC(C)N(C(=O)n1oc(=O)n(-c2ccc(OC(F)(F)F)cc2)c1=O)c1ccc(F)cc1 [Compound 202] , readout=Soybean plant response rating) returns 2

----------
Please go through the items and note down their I. Ryegrass plant response rating (0 to 100 scale).
# Test system: Italian ryegrass
# METHOD DESCRIPTION: Test E Italian ryegrass
# Type: in vivo, Lolium multiflorum
# SETUP CONDITIONS: Preemergence, Rate 250 g/ha
Returns: the value as a bare number; no unit string appended.

Lookup result for CC1CCCCC1n1c(=O)on(C(=O)N(c2ccccc2)C(C)C)c1=O (stereo not shown) [Compound 162] ; measured I. Ryegrass plant response rating (0 to 100 scale): 50

Lab note: CC(C)N(C(=O)n1oc(=O)n([C@@H](C)c2ccccc2)c1=O)c1ccc(Cl)cc1 [Compound 174] gave I. Ryegrass plant response rating (0 to 100 scale) of 0

# compound CC(=O)OCCCCn1c(=O)on(C(=O)N(c2ccc(F)cc2)C(C)C)c1=O [Compound 211] ; its I. Ryegrass plant response rating (0 to 100 scale) = 0

The recorded I. Ryegrass plant response rating (0 to 100 scale) for CC(C)N(C(=O)n1oc(=O)n(C2CC2)c1=O)c1ccc(F)cc1 [Compound 242] is 98

----------
# System: morningglory
# METHOD DESCRIPTION: Test B pre/postemergence morningglory
# Assay type: in vivo, Ipomoea hederacea
# SETUP CONDITIONS: Postemergence, Rate 500 g/ha; scale of 0 to 10 where 0 is no effect and 10 is complete control
REPORTED PROPERTY: Morningglory plant response rating
Just the number.

Sample CC(=O)C(C)n1c(=O)on(C(=O)N(c2ccc(F)cc2)C(C)C)c1=O (stereo not shown) ; Morningglory plant response rating observed: 6

Morningglory plant response rating recorded for this molecule, "CCOC(=O)C=C(Cn1c(=O)on(C(=O)N(c2ccc(F)cc2)C(C)C)c1=O)OCC" , is 8

Entry CC(C)N(C(=O)n1oc(=O)n(C(C)C#N)c1=O)c1ccc(F)cc1F (stereo not shown) , Morningglory plant response rating reported as 2

For reference, reported Morningglory plant response rating for COC(C)n1c(=O)on(C(=O)N(c2ccccc2)C(C)C)c1=O (stereo not shown) stands at 0

----------
# System: pigweed
# METHOD DESCRIPTION: Test B pre/postemergence pigweed
# Type: in vivo, Amaranthus retroflexus
# SETUP CONDITIONS: Preemergence, Rate 250 g/ha; scale 0 to 10, 0 is no effect, 10 is complete control
Exercise: for every item that follows, state its recorded Redroot pigweed plant response rating.
The answer should be a number; do not append a unit.

pigweed data for "CC(C)N(C(=O)n1oc(=O)n(-c2ccc(OC(F)(F)F)cc2)c1=O)c1ccc(F)cc1" ; its Redroot pigweed plant response rating: 8

Sample CC(=O)C(C)n1c(=O)on(C(=O)N(c2ccc(F)cc2)C(C)C)c1=O (centres unmarked) , system: pigweed. Its Redroot pigweed plant response rating is 6

Response field Redroot pigweed plant response rating (pigweed) for item "CC(C)N(C(=O)n1oc(=O)n(CC=Cc2ccccc2)c1=O)c1ccc(F)cc1" : 2

Form field, Redroot pigweed plant response rating with pigweed, item "CC(C)N(C(=O)n1oc(=O)n([C@@H](C)c2ccccc2)c1=O)c1ccccc1" : 0

# value of Redroot pigweed plant response rating, pigweed, item "CC(C)N(C(=O)n1oc(=O)n(CC#N)c1=O)c1ccccc1" = 0

Let me check: "Cc1nsc(C)c1-n1c(=O)on(C(=O)N(c2ccc(Cl)cc2)C(C)C)c1=O" , system pigweed, measured Redroot pigweed plant response rating is 0

Record for C=CC(CC)n1c(=O)on(C(=O)N(c2ccccc2)C(C)C)c1=O (centres unmarked) under target or system pigweed: Redroot pigweed plant response rating reported as 10

Per the reported pigweed data, CC(C)N(C(=O)n1oc(=O)n(C(C)C#N)c1=O)c1ccc(F)cc1F (centres unmarked) has Redroot pigweed plant response rating of 0
